Subject Of Test: UniProt O14965
Sequence (O14965 1-403): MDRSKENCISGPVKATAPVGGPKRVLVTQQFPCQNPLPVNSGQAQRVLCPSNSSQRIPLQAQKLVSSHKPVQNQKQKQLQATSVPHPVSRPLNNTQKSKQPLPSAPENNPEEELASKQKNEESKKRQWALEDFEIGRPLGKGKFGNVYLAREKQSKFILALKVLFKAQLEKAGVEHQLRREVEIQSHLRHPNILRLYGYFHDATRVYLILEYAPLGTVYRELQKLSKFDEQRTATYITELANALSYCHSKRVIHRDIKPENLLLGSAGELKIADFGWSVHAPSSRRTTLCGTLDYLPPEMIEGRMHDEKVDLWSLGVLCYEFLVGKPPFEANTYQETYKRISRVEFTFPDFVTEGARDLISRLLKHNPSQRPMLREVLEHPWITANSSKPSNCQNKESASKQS
pKi: −log10 of the molar value.
Provide the recorded pKi for the entries that follow.

For reference, reported pKi for Fc1cccc(-c2cnoc2-c2c[nH]c3ncc(-c4ccc(CN5CCOCC5)cc4)cc23)c1F stands at > 6.70

Given item Fc1cccc(-c2cnoc2-c2c[nH]c3ncc(-c4c[nH]cn4)cc23)c1F , the value recorded as its pKi is > 6.70

Per the record, Fc1cccc(-c2cnoc2-c2c[nH]c3ncccc23)c1F has pKi of 6.00 to 6.70

Summary for this compound, Oc1cccc(-c2cnc3[nH]cc(-c4oncc4-c4cccc(F)c4F)c3c2)c1 : pKi is > 6.70

* * *

Could you please report measured Ki for the items listed next?

Measured Ki for this entry COc1ccnc(-c2cnc3[nH]cc(-c4oncc4-c4cccc(F)c4F)c3c2)c1 on FLT-3 (Homo sapiens, UniProt P36888): 200 to 1000 nM

Reported FLT-3 (Homo sapiens, UniProt P36888) Ki for item CN(C)Cc1ccc(-c2cnc3[nH]cc(-c4oncc4-c4cccc(F)c4F)c3c2)cc1 was < 200 nM

The reported FLT-3 (Homo sapiens, UniProt P36888) Ki of COc1cncc(-c2cnc3[nH]cc(-c4oncc4-c4cccc(F)c4F)c3c2)c1 is 200 to 1000 nM

Record O=C(c1cnc2[nH]cc(-c3oncc3-c3cccc(F)c3F)c2c1)N1CCCC1 / FLT-3 (Homo sapiens, UniProt P36888), Ki recorded as 1000 to 12500 nM

The recorded Ki with FLT-3 (Homo sapiens, UniProt P36888) for CN1CCN(C(=O)[C@H]2C[C@H]2c2cnc3[nH]cc(-c4oncc4-c4cccc(F)c4F)c3c2)CC1 (relative stereo) was 200 to 1000 nM

The value of Ki recorded for CN(C)CCNc1ccc(-c2cnc3[nH]cc(-c4nncn4-c4cccc(F)c4F)c3c2)cn1 when tested on FLT-3 (Homo sapiens, UniProt P36888) reads 200 to 1000 nM

Tested system FLT-3 (Homo sapiens, UniProt P36888); Ki recorded for Fc1c(Cl)cccc1-c1cnoc1-c1c[nH]c2ncccc12 was 1000 to 12500 nM

Form: item CN(C)Cc1cnc2[nH]cc(-c3oncc3-c3cccc(F)c3F)c2c1 ; test system FLT-3 (Homo sapiens, UniProt P36888); Ki: 1000 to 12500 nM

* * *

pKi: −log10 of the molar value.
Record: pKi reported on c-Met (Homo sapiens).
Sequence (P08581 25-1390): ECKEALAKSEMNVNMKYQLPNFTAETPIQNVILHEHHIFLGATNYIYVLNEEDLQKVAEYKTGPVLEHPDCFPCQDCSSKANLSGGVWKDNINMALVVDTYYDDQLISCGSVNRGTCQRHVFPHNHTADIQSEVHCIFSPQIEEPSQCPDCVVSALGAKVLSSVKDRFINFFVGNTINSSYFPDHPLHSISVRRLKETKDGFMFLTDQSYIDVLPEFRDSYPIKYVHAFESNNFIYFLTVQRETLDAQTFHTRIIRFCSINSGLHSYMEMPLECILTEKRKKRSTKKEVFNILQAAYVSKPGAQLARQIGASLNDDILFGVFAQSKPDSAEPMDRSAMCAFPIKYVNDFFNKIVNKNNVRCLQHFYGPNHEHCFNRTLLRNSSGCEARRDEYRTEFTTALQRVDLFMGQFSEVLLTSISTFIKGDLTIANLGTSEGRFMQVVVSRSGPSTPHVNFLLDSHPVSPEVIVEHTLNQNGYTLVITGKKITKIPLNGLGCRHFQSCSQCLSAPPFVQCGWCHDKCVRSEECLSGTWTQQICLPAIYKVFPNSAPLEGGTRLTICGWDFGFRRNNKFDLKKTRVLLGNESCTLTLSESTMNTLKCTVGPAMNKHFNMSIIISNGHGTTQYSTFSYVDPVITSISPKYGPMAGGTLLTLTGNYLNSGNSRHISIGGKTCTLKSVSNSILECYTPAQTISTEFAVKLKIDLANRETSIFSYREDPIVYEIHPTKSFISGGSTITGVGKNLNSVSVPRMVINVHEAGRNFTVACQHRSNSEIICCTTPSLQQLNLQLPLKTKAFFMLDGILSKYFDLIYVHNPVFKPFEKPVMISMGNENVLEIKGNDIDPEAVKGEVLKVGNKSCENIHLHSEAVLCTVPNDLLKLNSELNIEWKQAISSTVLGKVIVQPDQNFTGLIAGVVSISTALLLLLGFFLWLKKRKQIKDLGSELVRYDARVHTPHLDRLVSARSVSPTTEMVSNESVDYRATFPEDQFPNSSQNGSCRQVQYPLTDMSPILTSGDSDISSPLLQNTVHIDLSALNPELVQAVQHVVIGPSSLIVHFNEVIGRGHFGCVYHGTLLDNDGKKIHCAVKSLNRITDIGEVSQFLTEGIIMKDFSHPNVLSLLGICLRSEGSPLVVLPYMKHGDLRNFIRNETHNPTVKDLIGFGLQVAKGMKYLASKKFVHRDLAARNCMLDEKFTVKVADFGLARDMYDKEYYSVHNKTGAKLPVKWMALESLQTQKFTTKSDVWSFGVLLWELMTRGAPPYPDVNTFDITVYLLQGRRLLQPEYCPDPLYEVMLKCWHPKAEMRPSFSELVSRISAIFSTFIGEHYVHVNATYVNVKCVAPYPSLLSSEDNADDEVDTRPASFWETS

Item: Fc1cccc(-c2cnoc2-c2c[nH]c3ncc(CCn4cncn4)cc23)c1F [Compound 132] | pKi: 6.00 to 6.70

The recorded pKi for Fc1cccc(-n2nnnc2-c2c[nH]c3ncccc23)c1F [Compound 11] is 4.90 to 6.00

pKi in this record for CN(C)c1ccc(-c2cnc3[nH]cc(-c4nncn4-c4cccc(F)c4F)c3c2)cc1 [Compound 106] : > 6.70

Value of pKi reported for the molecule CN1CCN(C(=O)[C@H]2C[C@@H]2c2cnc3[nH]cc(-c4oncc4-c4cccc(F)c4F)c3c2)CC1 (relative stereo) [Compound 142] is > 6.70

GET /value?item= CS(=O)(=O)n1ccc2cc(-c3cnc4[nH]cc(-c5oncc5-c5cccc(F)c5F)c4c3)cnc21 [Compound 97] &field=pKi returns > 6.70

Reported pKi ( CN(C)Cc1ccc(-c2cnc3[nH]cc(-c4oncc4-c4cccc(F)c4F)c3c2)nc1 [Compound 84] ) = > 6.70

The molecule listed as Fc1cccc(-c2cnoc2-c2c[nH]c3ncc(-c4ccncc4)cc23)c1F [Compound 57] has a reported pKi of > 6.70

Query OC1CCN(c2ccc(-c3cnc4[nH]cc(-c5nncn5-c5cccc(F)c5F)c4c3)cn2)CC1 [Compound 116] yields pKi of > 6.70

response.value for CN1CCN(c2ccc(-c3cnc4[nH]cc(-c5nncn5-c5cccc(F)c5F)c4c3)cc2N)CC1 [Compound 129] (field: pKi) = > 6.70

// pKi lookup, molecule = Fc1cccc(-n2cnnc2-c2c[nH]c3ncc(-c4cccnc4)cc23)c1F [Compound 113] , result: > 6.70

Item: Fc1cccc(-c2cnoc2-c2c[nH]c3ncc(-c4cncnc4)cc23)c1F [Compound 85] | pKi: > 6.70

Kindly note the recorded pKi for Oc1cnc2[nH]cc(-c3oncc3-c3cccc(Cl)c3Cl)c2c1 [Compound 48] , which is > 6.70

Sample CN1CCN(c2ccc(-c3cnc4[nH]cc(-c5nncn5-c5cccc(F)c5F)c4c3)cc2)CC1 [Compound 110] ; pKi observed: > 6.70

The recorded pKi for entry Fc1cccnc1-c1cnc2[nH]cc(-c3oncc3-c3cccc(F)c3F)c2c1 [Compound 74] equals > 6.70

Summary for this molecule, COc1ccnc(-c2cnc3[nH]cc(-c4oncc4-c4cccc(F)c4F)c3c2)c1 [Compound 78] : pKi is > 6.70

Entry Fc1cccc(-c2cnoc2-c2c[nH]c3ncc(-c4cnc5[nH]ccc5c4)cc23)c1F [Compound 77] , pKi reported as > 6.70

pKi reading for Fc1cccc(-n2cnnc2-c2c[nH]c3ncc(-c4ccc(NCC5CCCO5)nc4)cc23)c1F (centres unmarked) [Compound 124] : > 6.70

pKi reading for Fc1cccc(-c2cnoc2-c2c[nH]c3ncc(-c4ccccc4)cc23)c1F [Compound 58] : > 6.70

Sample CN(C)c1ccc(-c2cnc3[nH]cc(-c4nncn4-c4cccc(F)c4F)c3c2)cc1[N+](=O)[O-] [Compound 131] ; pKi observed: > 6.70

// field: pKi; key: CC(=O)Nc1ccc(-c2cnc3[nH]cc(-c4oncc4-c4cccc(F)c4F)c3c2)cc1 [Compound 95] ; value = > 6.70

get_value(item= Fc1cccc(-c2cnoc2-c2c[nH]c3ncc(-c4ccc(CN5CCOCC5)cc4)cc23)c1F [Compound 92] , readout=pKi) returns > 6.70

# molecule OCC1CCN(c2ccc(-c3cnc4[nH]cc(-c5nncn5-c5cccc(F)c5F)c4c3)cn2)CC1 [Compound 120] ; its pKi = > 6.70

Form field pKi, entry Fc1cccc(-c2cnoc2-c2c[nH]c3ncc(Br)cc23)c1F [Compound 37] : > 6.70

The molecule identified as N#Cc1ccc(-c2cnc3[nH]cc(-c4oncc4-c4cccc(F)c4F)c3c2)cc1 [Compound 89] registered its pKi at > 6.70

// sample Fc1cccc(-c2cnoc2-c2c[nH]c3ncc(C4=CCC(NCc5ccccc5)CC4)cc23)c1F (centres unmarked) [Compound 136] , its pKi was > 6.70

What the record says about Fc1cccc(-c2cnoc2-c2c[nH]c3ncc(C4=CCC(N5CCOCC5)CC4)cc23)c1F (centres unmarked) [Compound 139] : pKi is > 6.70

The recorded pKi for entry CN(C)C1CC=C(c2cnc3[nH]cc(-c4oncc4-c4cccc(F)c4F)c3c2)CC1 (centres unmarked) [Compound 138] equals > 6.70

# pKi (molecule: Fc1ccc(-c2cnc3[nH]cc(-c4oncc4-c4cccc(F)c4F)c3c2)cn1 [Compound 69] ) is > 6.70

Per the record, CCNc1ccc2c(-c3oncc3-c3cccc(F)c3F)n[nH]c2n1 [Compound 30] has pKi of 4.90 to 6.00

Noted for COc1cnc2[nH]cc(-c3nncn3-c3cccc(F)c3F)c2c1 [Compound 108] : its pKi reads 6.00 to 6.70

Reported pKi for Fc1ccc(F)c(-c2cnoc2-c2c[nH]c3ncccc23)c1F [Compound 41] was 6.00 to 6.70

Lab book: pKi of CN1CCN(Cc2ccc(-c3cnc4[nH]cc(-c5oncc5-c5cccc(F)c5F)c4c3)cc2)CC1 [Compound 94] noted as > 6.70

Sourced from patent US7446199B2
